Test: Pharmacokinetic study in rats (plasma, LC-MS/MS, NCA)
Conditions: male, Sprague-Dawley, rat, plasma, po, 100 mg/kg, Mean plasma concentration, rats, 1 h, multiple p.o. 100 mg/kg
endpoint: concentration at 1 h (ng/mL)
State the answer as a number, implicitly in ng/mL.

So, CC(=O)Nc1ccc(NC(=O)c2ccc(C(C)=O)o2)cc1 [Compound 25a] ? Its concentration at 1 h was 1410

* * *

Experiment: Tissue distribution study in rats
Type: in vivo, SD rats
Conditions: male, Sprague-Dawley, rat, liver, single oral dose 100 mg/kg
endpoint: Cmax (ng/mL)
State just the number; it will be interpreted in ng/mL.

The recorded Cmax for CC(=O)Nc1ccc(NC(=O)c2ccc(C(C)=O)o2)cc1 [Compound 25a] is 183
